Listing: pIC50 of selected binders
molecular target: IGF-1 (human, UniProt P05019); assay: competition phage ELISA
Sequence (P05019 49-118): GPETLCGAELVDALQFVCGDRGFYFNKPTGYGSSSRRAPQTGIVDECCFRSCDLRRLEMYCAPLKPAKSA
Would you please state pIC50, meaning minus log10 of the concentration in mol/L, as a bare number?

# Binder, pIC50
records = [
    ("VRCVADAGGFLYCWA [F2-N]", 5.93),
    ("VTCAADALGFLYCWE [F2-I]", 5.99),
    ("YRCATDLAGFSYCWA [F2-K]", 5.84),
]

So what does the record say about pIC50 for SDCFGSVEALKMCMY [F1-E] ?
6.15

Try this binder next: ASCVADAGGGGYCWD [F2-G]
6.01
